experiment-description: Plasma half-life of Compound A, preclinical
Format: in vivo, rodents
measurement-parameters: rodents, plasma
metric-name: half-life

Quick one: half-life of CNS(=O)(=O)Nc1cccc(Cc2c(CN(C)C)c3ccc(OC(=O)N(C)C)cc3oc2=O)c1F ? 1.2 to 1.3 h

###

experiment-description: Single dose PK profile in Colon-26 tumor bearing mice
Type: in vivo
measurement-parameters: female, mouse, iv, 25 mg/kg; plasma; 25 mpk i.v.; 2nd of two values in cell; read-out: AUC0-t
Procedure: Female mice (either athymic BALC/c nude, or BALB/c mice) were inoculated with a single subcutaneous injection of 0.1 ml of mouse Colon-26 cell suspension (1×10^5 cells per animal) in the right flank region. […]
metric-name: AUC(0-t) (ng·h/mL)
Quick reminder: number only, in ng·h/mL, skip the unit.

Report AUC(0-t) for CNS(=O)(=O)Nc1cccc(Cc2c(CN(C)C)c3ccc(OC(=O)N(C)C)cc3oc2=O)c1F please. 7730
